IC50: recorded values
Biological target: KRAS G12D (Homo sapiens (Human), UniProt P01116+P62937, G12D)
Sequence (P01116-2 other isoform, or with tags, fused parts or gaps G12D): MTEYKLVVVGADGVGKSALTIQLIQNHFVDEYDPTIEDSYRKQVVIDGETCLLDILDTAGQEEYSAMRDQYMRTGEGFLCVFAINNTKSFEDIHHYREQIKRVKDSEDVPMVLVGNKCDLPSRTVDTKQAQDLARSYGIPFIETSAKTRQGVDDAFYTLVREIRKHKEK
Sequence (P62937 whole entry): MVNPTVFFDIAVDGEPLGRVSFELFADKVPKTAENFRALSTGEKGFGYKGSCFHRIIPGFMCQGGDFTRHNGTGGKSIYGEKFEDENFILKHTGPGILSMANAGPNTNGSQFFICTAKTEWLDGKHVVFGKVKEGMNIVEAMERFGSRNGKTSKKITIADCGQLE
Assay: Ras-Raf (BRAF RBD) disruption / FRET / MOA assay, KRAS G12D
Assay type: biochemical
Conditions: Ras-Raf disruption/FRET/MOA assay; class symbols; read-out: KRAS G12D FRET data IC50

Example entries begin here.
C=CC(=O)N1CCC(C(=O)N(C)[C@H](C(=O)N[C@H]2CCC(=O)N(C)Cc3ccc4c(c3)c(c(-c3cccnc3[C@H](C)OC)n4CC)CC(C)(C)COC(=O)[C@@H]3CCCN(N3)C2=O)C(C)C)C1 (atropisomer, axis not shown) [Example A500]    > 10 µM
CC#CC(=O)N1CC[C@@]2(CCN([C@H](C(=O)N[C@H]3Cc4cccc(c4)-c4ccc5c(c4)c(c(-c4cccnc4[C@H](C)OC)n5CC)CC(C)(C)COC(=O)[C@@H]4CCCN(N4)C3=O)C(C)C)C2=O)C1 (atropisomer, axis not shown) [Example A426]    > 10 µM
C=C(F)C(=O)N1CC2(CCN(C(=O)N(C)[C@H](C(=O)N[C@H]3Cc4nc(cs4)-c4ccc5c(c4)c(c(-c4cccnc4[C@H](C)OC)n5CC)CC(C)(C)COC(=O)[C@@H]4CCCN(N4)C3=O)C(C)C)CC2)C1 (atropisomer, axis not shown) [Example A682]    0.1 to 1 µM
C=CC(=O)N(C)[C@H](C(=O)N[C@H]1Cc2cc(O)cc(c2)-c2ccc3c(c2)c(c(-c2cccnc2COC)n3CC)CC(C)(C)COC(=O)[C@@H]2CCCN(N2)C1=O)C(C)C [Example A110]    1 to 10 µM
C=CC(=O)N(C)C(=O)N(C)[C@H](C(=O)N[C@H]1Cc2nc(cs2)-c2ccc3c(c2)c(c(-c2cccnc2[C@H](C)OC)n3CC)CC(C)(C)COC(=O)[C@@H]2CCCN(N2)C1=O)C(C)C (atropisomer, axis not shown) [Example A355]    > 10 µM

So what does the record say about IC50 for C=CC(=O)N1CC[C@H](C(=O)N(C)[C@H](C(=O)N[C@H]2CC3=NC=C(O3)c3ccc4c(c3)c(c(-c3cccnc3[C@H](C)OC)n4CC)CC(C)(C)COC(=O)[C@@H]3CCCN(N3)C2=O)C(C)C)C1 (atropisomer, axis not shown) [Example A278] ?
> 10 µM

Which IC50 value belongs to CCn1c(-c2cccnc2[C@H](C)OC)c2c3cc(ccc31)-c1cc(O)cc(c1)C[C@H](NC(=O)[C@H](C(C)C)N(C)C(=O)[C@H]1CCN(C(=O)C#CC3(N(C)C)COC3)C1)C(=O)N1CCC[C@H](N1)C(=O)OCC(C)(C)C2 [Example A246] ?
1 to 10 µM

Fill in: IC50 of CCn1c(-c2cccnc2[C@H](C)OC)c2c3cc(ccc31)-c1csc(n1)C[C@H](NC(=O)[C@H](C(C)C)N(C)C(=O)N1CCC13CN(C(=O)C#CC(C)(C)N(C)C)C3)C(=O)N1CCC[C@H](N1)C(=O)OCC(C)(C)C2 (atropisomer, axis not shown) [Example A656] is ___
1 to 10 µM
